# Assay System: UniProt:P51531
# Procedure Summary: MSD SMARCA2 degradation in A549 cell line
# Type: cell-based
# Stated Conditions: A549, A549 cells, 24 h
The entries below are paired with their reported Dmax.

[[record]]
molecule = "Cc1ncsc1-c1ccc(CNC(=O)[C@@H]2C[C@@H](O)CN2C(=O)[C@@H](NC(=O)[C@H]2CC3(C[C@H](CN(C)Cc4cnc(N5C6CCC5CN(c5cc(-c7ccccc7O)nnc5N)C6)nc4)C3)C2)C(C)(C)C)cc1 (stereo partly drawn)"
assay_value = "> 90%"


Prompt: Value lookup for Dmax; key = Cc1ncsc1-c1ccc(CNC(=O)[C@@H]2C[C@@H](O)CN2C(=O)[C@@H](NC(=O)CCN2CCC(n3cc(-c4cc(-c5ccccc5O)nnc4N)cn3)CC2)C(C)(C)C)cc1
Completion: < 50%

Prompt: Can you handle Cn1c(=O)n(C2CCC(=O)NC2=O)c2cccc(CN3CCC4(CCN(Cc5cccc(C#Cc6cc(NC(=O)Nc7cc(F)ncc7CO)ccn6)c5)CC4)CC3)c21 (stereo not drawn) next?
Completion: < 50%

====

# Assay System: SMARCA4 (Homo sapiens, UniProt P51532)
# Construct: SMARCA2 and SMARCA4 protein degradation in MV4-11 cells; endogenous in cells; host or cells: MV4-11
# Sequence (P51532 whole entry): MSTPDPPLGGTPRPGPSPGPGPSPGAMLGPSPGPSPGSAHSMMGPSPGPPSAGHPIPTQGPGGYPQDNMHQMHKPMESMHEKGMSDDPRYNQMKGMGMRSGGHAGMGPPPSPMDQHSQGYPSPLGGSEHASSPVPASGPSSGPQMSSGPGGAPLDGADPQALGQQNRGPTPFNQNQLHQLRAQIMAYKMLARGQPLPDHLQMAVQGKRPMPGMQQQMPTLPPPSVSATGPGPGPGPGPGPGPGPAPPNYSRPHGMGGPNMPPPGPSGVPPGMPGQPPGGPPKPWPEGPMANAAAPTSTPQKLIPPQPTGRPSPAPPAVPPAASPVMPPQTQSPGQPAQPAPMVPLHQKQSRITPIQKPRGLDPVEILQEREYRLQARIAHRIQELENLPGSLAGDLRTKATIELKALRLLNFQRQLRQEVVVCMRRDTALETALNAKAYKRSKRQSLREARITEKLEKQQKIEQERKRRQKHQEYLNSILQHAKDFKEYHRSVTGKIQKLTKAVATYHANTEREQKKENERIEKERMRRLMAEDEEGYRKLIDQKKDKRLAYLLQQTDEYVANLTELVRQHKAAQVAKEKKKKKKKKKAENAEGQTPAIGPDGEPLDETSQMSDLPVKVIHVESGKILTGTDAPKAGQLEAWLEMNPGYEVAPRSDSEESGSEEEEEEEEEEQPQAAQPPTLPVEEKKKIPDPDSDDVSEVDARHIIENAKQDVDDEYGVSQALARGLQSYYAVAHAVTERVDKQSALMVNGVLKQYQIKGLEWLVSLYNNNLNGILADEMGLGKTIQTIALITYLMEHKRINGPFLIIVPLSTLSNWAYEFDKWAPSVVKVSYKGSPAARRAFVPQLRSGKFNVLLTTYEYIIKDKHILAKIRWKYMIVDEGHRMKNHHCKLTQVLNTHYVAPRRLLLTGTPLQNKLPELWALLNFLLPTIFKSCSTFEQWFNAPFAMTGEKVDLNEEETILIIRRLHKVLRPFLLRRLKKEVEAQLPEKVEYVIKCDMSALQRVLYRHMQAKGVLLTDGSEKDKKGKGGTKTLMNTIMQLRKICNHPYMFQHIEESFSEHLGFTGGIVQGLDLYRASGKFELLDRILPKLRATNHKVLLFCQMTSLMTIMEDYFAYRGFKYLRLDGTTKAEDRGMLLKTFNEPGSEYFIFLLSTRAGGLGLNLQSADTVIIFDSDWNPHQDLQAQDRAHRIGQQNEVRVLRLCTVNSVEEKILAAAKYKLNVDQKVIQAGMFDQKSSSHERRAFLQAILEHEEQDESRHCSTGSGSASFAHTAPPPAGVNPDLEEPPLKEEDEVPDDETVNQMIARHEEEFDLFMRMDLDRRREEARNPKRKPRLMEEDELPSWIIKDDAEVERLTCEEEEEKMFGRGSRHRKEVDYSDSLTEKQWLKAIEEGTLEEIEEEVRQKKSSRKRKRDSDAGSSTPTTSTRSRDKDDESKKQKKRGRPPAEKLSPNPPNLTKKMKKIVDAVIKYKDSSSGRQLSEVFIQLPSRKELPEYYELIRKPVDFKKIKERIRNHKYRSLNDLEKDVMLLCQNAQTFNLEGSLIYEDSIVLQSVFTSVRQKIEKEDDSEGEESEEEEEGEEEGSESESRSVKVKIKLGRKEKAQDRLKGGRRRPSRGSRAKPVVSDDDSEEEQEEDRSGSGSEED
# Procedure Summary: SMARCA4 Western blot MV4-11 degradation
# Assay type: cell-based
# Stated Conditions: MV4-11 cells, 24 h, read-out: SMARCA4 WB MV411 degradation 24 h: Average external-Abs DC50
Measurement Kind: DC50

Example cases with answers are listed next.
[[record]]
smiles_repr = "Cc1ncsc1-c1ccc(CNC(=O)[C@@H]2C[C@@H](O)CN2C(=O)[C@@H](NC(=O)[C@H]2CC[C@H](c3cnc(N4C5CCC4CN(c4cc(-c6ccccc6O)nnc4N)C5)nc3)CC2)C(C)(C)C)c(C(F)(F)F)c1"
assay_value = "100 to 500 nM"

[[record]]
smiles_repr = "Cc1ncsc1-c1ccc(CNC(=O)[C@@H]2C[C@@H](O)CN2C(=O)[C@@H](NC(=O)c2ccc(CN3CCC(c4cnc(N5C6CCC5CN(c5cc(-c7ccccc7O)nnc5N)C6)nc4)CC3)cc2)C(C)(C)C)cc1"
assay_value = "< 100 nM"


Prompt: Value lookup for DC50; key = Cc1ncsc1-c1ccc(CNC(=O)[C@@H]2C[C@@H](O)CN2C(=O)[C@@H](NC(=O)[C@H]2C[C@H](N3CCC(n4cc(-c5cc(-c6ccccc6O)nnc5N)cn4)CC3)C2)C(C)(C)C)cc1
Completion: > 1000 nM

Prompt: Can you handle Cc1ncsc1-c1ccc(CNC(=O)[C@@H]2C[C@@H](O)CN2C(=O)[C@@H](NC(=O)C[C@H]2CC[C@H](c3nccc(N4C5CCC4CN(c4cc(-c6ccccc6O)nnc4N)C5)n3)CC2)C(C)(C)C)cc1 next?
Completion: < 100 nM

Prompt: Can you handle Cc1cc(-c2scnc2C)ccc1CNC(=O)[C@@H]1C[C@@H](O)CN1C(=O)[C@@H](NC(=O)CN1CCC(c2cnc(N3C4CCC3CN(c3cc(-c5ccccc5O)nnc3N)C4)nc2)CC1)C(C)(C)C next?
Completion: 100 to 500 nM

====

# Assay System: SMARCA2 (Homo sapiens, UniProt P51531)
# Sequence (P51531 whole entry): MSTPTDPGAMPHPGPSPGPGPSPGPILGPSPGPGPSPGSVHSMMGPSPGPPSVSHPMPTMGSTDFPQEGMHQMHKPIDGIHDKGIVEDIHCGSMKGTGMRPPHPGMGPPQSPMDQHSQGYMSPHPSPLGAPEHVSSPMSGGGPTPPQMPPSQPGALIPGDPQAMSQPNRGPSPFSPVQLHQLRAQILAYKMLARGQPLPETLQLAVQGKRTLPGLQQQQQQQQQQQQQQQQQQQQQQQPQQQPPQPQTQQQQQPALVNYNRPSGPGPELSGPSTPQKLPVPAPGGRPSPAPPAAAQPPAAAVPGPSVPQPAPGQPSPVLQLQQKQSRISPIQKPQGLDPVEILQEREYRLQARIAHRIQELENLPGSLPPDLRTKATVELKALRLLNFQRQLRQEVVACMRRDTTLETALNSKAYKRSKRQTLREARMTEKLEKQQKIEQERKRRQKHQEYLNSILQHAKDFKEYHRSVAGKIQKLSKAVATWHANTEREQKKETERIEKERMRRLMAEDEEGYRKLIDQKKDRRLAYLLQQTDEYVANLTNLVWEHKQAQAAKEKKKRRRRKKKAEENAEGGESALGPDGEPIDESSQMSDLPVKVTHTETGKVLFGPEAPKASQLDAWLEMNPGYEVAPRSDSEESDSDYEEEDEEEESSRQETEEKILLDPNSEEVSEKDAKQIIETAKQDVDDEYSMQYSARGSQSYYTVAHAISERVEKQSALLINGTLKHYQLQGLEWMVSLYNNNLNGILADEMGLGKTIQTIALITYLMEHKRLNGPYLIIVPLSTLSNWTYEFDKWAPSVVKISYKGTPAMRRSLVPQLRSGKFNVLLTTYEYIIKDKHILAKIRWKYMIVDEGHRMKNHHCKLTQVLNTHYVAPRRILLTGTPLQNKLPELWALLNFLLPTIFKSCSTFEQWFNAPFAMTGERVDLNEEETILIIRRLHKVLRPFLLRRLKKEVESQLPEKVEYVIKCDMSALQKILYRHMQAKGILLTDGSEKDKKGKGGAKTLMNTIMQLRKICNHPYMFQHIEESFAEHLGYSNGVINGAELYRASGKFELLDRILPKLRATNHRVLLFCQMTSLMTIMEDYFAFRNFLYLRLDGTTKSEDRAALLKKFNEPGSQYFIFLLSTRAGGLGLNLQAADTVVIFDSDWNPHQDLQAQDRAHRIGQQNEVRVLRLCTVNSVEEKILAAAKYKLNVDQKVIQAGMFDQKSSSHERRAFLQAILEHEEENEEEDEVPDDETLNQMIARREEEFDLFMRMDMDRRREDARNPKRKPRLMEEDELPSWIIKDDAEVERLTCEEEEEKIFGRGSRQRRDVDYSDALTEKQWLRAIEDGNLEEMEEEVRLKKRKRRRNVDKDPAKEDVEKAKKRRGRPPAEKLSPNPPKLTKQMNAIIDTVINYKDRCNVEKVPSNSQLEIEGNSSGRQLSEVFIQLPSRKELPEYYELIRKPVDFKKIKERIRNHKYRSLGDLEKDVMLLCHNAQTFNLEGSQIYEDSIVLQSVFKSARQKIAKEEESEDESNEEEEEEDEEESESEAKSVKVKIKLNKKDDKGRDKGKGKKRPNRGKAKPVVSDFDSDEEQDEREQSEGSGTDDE
# Procedure Summary: MSD SMARCA2 degradation in NCI-H1299 cell line (24 h)
# Assay type: cell-based
# Design: HC: NCI-H1299 cells treated with DMSO; host or cells: NCI-H1299
# Stated Conditions: NCI-H1299, NCI-H1299 cells
The entries below are paired with their reported Dmax.

Example cases with answers are listed next.
[[record]]
compound = "Cc1ncsc1-c1ccc(CNC(=O)[C@@H]2C[C@@H](O)CN2C(=O)[C@@H](NC(=O)[C@H]2CC[C@H](c3cnc(N4C5CCC4CN(c4cc(-c6ccccc6O)nnc4N)C5)nc3)CC2)C(C)(C)C)cc1"
assay_value = "> 90%"

[[record]]
compound = "O=C1CCC(N2C(=O)c3cccc(OCCCc4cn(CCCc5cccc(N6C[C@H]7C[C@@H]6CN7/C=C/C(=O)c6ccccc6O)n5)nn4)c3C2=O)C(=O)N1 (stereo partly drawn)"
assay_value = "70 to 90%"

[[record]]
compound = "CN(CC[C@@H]1CN(CCCc2cccc3c2n(C)c(=O)n3C2CCC(=O)NC2=O)CCO1)Cc1ccc(N2CCN(c3cc(-c4ccccc4O)nnc3N)CC2)cc1 (stereo partly drawn)"
assay_value = "70 to 90%"

[[record]]
compound = "CN(CCCC#Cc1cnc(N2C3CCC2CN(c2cc(-c4ccccc4O)nnc2N)C3)nc1)Cc1ccc2c(c1)n(C)c(=O)n2C1CCC(=O)NC1=O (stereo not drawn)"
assay_value = "> 90%"

[[record]]
compound = "Cc1ncsc1-c1ccc(CNC(=O)[C@@H]2C[C@@H](O)CN2C(=O)[C@@H](NC(=O)CCN2CCC(c3cnc(N4C5CCC4CN(c4cc(-c6ccccc6O)nnc4N)C5)nc3)CC2)C(C)(C)C)cc1"
assay_value = "< 50%"


Prompt: Value lookup for Dmax; key = Cn1c(=O)n(C2CCC(=O)NC2=O)c2ccc(CCCCOc3ccc(CN4CCN(c5cc(-c6ccccc6O)nnc5N)CC4)cc3)cc21 (stereo not drawn)
Completion: < 50%

Prompt: Can you handle Cn1c(=O)n(C2CCC(=O)NC2=O)c2ccc(CCc3cnc(N4C5CCC4CN(c4cc(-c6ccccc6O)nnc4N)C5)nc3)cc21 (stereo not drawn) next?
Completion: 50 to 70%

Prompt: Can you handle CN(Cc1cnc(N2C3CCC2CN(c2cc(-c4ccccc4O)nnc2N)C3)nc1)CC1CCN(c2ccc3c(c2)n(C)c(=O)n3C2CCC(=O)NC2=O)CC1 (stereo not drawn) next?
Completion: > 90%

Prompt: Can you handle Cn1c(=O)n(C2CCC(=O)NC2=O)c2ccc(CCCCN3CCN(Cc4ccc(-c5cc(-c6ccccc6O)nnc5N)cc4)CC3)cc21 (stereo not drawn) next?
Completion: < 50%

Prompt: Can you handle Cn1c(=O)n(C2CCC(=O)NC2=O)c2ccc(C#CCCCCCc3cn(Cc4cccc(N5C[C@H]6C[C@@H]5CN6/C=C/C(=O)c5ccccc5O)n4)nn3)cc21 (stereo partly drawn) next?
Completion: < 50%

Prompt: Can you handle O=C1CCC(n2c(=O)n(CCCCCCCCc3cn(Cc4cccc(N5C[C@H]6C[C@@H]5CN6/C=C/C(=O)c5ccccc5O)n4)nn3)c3ccccc32)C(=O)N1 (stereo partly drawn) next?
Completion: < 50%

Prompt: Can you handle Cn1c(=O)n(C2CCC(=O)NC2=O)c2ccc(CCCCCCCCc3cn(Cc4cccc(N5C[C@H]6C[C@@H]5CN6/C=C/C(=O)c5ccccc5O)n4)nn3)cc21 (stereo partly drawn) next?
Completion: < 50%

====

# Assay System: SMARCA2 (Homo sapiens, UniProt P51531)
# Procedure Summary: MSD SMARCA2 degradation in A549 cell line
# Type: cell-based
# Stated Conditions: A549, A549 cells, 24 h
Measurement Kind: Dmax

[[record]]
compound = "Cc1ncsc1-c1ccc(CNC(=O)[C@@H]2C[C@@H](O)CN2C(=O)[C@@H](NC(=O)CCCC#Cc2cnc(N3C4CCC3CN(c3cc(-c5ccccc5O)nnc3N)C4)nc2)C(C)(C)C)cc1"
assay_value = "> 90%"


Prompt: Value lookup for Dmax; key = Cc1ncsc1-c1ccc(CNC(=O)[C@@H]2C[C@@H](O)CN2C(=O)[C@@H](NC(=O)N2CCC(c3cnc(N4C5CCC4CN(c4cc(-c6ccccc6O)nnc4N)C5)nc3)CC2)C(C)(C)C)cc1
Completion: > 90%

Prompt: Can you handle Cc1ncsc1-c1ccc(CNC(=O)[C@@H]2C[C@@H](O)CN2C(=O)[C@@H](NC(=O)C[C@H]2CC[C@H](c3nccc(N4C5CCC4CN(c4cc(-c6ccccc6O)nnc4N)C5)n3)CC2)C(C)(C)C)cc1 next?
Completion: > 90%

Prompt: Can you handle Cc1ncsc1-c1ccc(CNC(=O)[C@@H]2C[C@@H](O)CN2C(=O)[C@@H](NC(=O)C2CCC(CCCCCN3CCC(Cn4cc(-c5cc(-c6ccccc6O)nnc5N)cn4)CC3)CC2)C(C)(C)C)cc1 (stereo partly shown) next?
Completion: > 90%

Prompt: Can you handle Cc1ncsc1-c1ccc(CNC(=O)[C@@H]2C[C@@H](O)CN2C(=O)[C@@H](NC(=O)CC2CCC(N3CCC(c4cnc(N5C6CCC5CN(c5cc(-c7ccccc7O)nnc5N)C6)nc4)CC3)CC2)C(C)(C)C)cc1 (stereo partly shown) next?
Completion: > 90%

Prompt: Can you handle CN(Cc1ccc(C#Cc2cc(NC(=O)Nc3cc(F)ncc3CO)ccn2)cc1)CC1CCN(Cc2cccc3c2n(C)c(=O)n3C2CCC(=O)NC2=O)CC1 (stereo not shown) next?
Completion: < 50%

====

# Assay System: SMARCA2 (Homo sapiens)
# Procedure Summary: MSD SMARCA2 degradation in NCI-H1299 cell line (24 h)
# Type: cell-based
# Set-up: HC: NCI-H1299 cells treated with DMSO; host or cells: NCI-H1299
# Stated Conditions: NCI-H1299 cells, read-out: SMARCA2 MSD H1299 degradation 24 h: External Abs-DC50
Measurement Kind: DC50

[[record]]
compound = "Cn1c(=O)n(C2CCC(=O)NC2=O)c2ccc(CCCN3CCCC(c4cnc(N5C6CCC5CN(c5cc(-c7ccccc7O)nnc5N)C6)nc4)C3)cc21 (stereo not drawn)"
measurement_kind = "DC50"
assay_value = "< 0.1 µM"


Prompt: Value lookup for DC50; key = Cn1c(=O)n(C2CCC(=O)NC2=O)c2ccc(CCCCCN3CCC(n4cc(-c5cc(-c6ccccc6O)nnc5N)cn4)CC3)cc21 (stereo not drawn)
Completion: < 0.1 µM

Prompt: Can you handle Cn1c(=O)n(C2CCC(=O)NC2=O)c2ccc(CCCCCCCc3cnc(N4C5CCC4CN(c4cc(-c6ccccc6O)nnc4N)C5)nc3)cc21 (stereo not drawn) next?
Completion: < 0.1 µM

Prompt: Can you handle CN(Cc1ccc(N2CCN(c3cc(-c4ccccc4O)nnc3N)CC2)cc1)C[C@@H]1CN(CCCc2cccc3c2n(C)c(=O)n3C2CCC(=O)NC2=O)CCO1 (stereo partly drawn) next?
Completion: 0.1 to 0.5 µM

Prompt: Can you handle Cn1c(=O)n(C2CCC(=O)NC2=O)c2ccc(CCc3cnc(N4C5CCC4CN(c4cc(-c6ccccc6O)nnc4N)C5)nc3)cc21 (stereo not drawn) next?
Completion: 0.1 to 0.5 µM

Prompt: Can you handle Cn1c(=O)n(C2CCC(=O)NC2=O)c2cccc(CCCCCCCCN3CCN(c4cc(-c5ccccc5O)nnc4N)CC3)c21 (stereo not drawn) next?
Completion: > 1 µM

Origin of measurements: patent US12624044B2
